Biological target: Progesterone receptor (Homo sapiens); also: assay procedure not described here
Sequence (P06401 whole entry): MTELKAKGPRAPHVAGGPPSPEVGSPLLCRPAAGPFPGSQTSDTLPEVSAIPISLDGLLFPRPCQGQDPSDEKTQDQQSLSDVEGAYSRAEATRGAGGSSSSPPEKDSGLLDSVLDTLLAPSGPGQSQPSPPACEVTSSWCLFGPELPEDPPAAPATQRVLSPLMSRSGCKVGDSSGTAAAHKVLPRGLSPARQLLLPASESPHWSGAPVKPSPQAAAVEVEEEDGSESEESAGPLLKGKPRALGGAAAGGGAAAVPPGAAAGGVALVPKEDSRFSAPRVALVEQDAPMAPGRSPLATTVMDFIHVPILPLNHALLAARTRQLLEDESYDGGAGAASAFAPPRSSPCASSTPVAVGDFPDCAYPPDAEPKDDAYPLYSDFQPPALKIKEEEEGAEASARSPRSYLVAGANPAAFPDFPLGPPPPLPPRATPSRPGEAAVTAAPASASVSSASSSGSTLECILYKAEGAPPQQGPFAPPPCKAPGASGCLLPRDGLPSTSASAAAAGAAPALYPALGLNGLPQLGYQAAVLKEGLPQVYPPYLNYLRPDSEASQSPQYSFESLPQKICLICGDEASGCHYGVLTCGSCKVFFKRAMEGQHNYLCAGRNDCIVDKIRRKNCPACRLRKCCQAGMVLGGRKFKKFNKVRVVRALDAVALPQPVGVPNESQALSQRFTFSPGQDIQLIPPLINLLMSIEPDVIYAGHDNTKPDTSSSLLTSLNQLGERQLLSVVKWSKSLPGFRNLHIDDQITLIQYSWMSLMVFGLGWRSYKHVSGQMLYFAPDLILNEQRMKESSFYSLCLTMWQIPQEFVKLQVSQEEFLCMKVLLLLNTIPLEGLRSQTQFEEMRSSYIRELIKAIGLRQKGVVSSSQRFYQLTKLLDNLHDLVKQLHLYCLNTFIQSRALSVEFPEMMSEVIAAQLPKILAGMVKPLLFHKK
Format: functional
AC50 values by entry

Below, each entry is followed by its recorded AC50 result.
- c1ccc([C@H]2CN3CCSC3=N2)cc1: > 30 µM
- Nc1nc(Cl)nc2c1ncn2[C@H]1C[C@H](O)[C@@H](CO)O1: > 30 µM
- C[C@H](N)[C@H](O)c1cccc(O)c1: > 10 µM

Okay, now this compound:
INPUT: # lookup: AC50 of NCC(=O)CCC(=O)O
OUTPUT: > 30 µM

###

The following compounds each carry a recorded AC50 for UniProt P41145.
Sequence (P41145 whole entry): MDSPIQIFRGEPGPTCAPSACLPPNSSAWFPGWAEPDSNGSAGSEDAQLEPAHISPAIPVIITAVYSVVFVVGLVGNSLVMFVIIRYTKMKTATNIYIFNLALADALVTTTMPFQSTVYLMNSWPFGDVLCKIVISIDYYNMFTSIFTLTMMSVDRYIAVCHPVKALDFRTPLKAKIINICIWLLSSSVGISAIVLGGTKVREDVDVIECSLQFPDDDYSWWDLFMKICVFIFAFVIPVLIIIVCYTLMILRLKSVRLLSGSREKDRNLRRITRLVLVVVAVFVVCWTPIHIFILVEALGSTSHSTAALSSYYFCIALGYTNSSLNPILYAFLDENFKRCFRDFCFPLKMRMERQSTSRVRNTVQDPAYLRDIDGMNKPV

- CCCc1nc(C(C)(C)O)c(C(=O)OCc2oc(=O)oc2C)n1Cc1ccc(-c2ccccc2-c2nnn[nH]2)cc1: > 10 µM
- CCC(C)n1ncn(-c2ccc(N3CCN(c4ccc(OCC5COC(Cn6cncn6)(c6ccc(Cl)cc6Cl)O5)cc4)CC3)cc2)c1=O (centres undefined): > 30 µM
- COc1cc2c(N)nc(N3CCN(C(=O)OCC(C)(C)O)CC3)nc2c(OC)c1OC: > 30 µM
- COC(=O)[C@H]1[C@H]2C[C@@H]3c4[nH]c5cc(OC)ccc5c4CCN3C[C@H]2C[C@@H](OC(=O)/C=C/c2cc(OC)c(OC)c(OC)c2)[C@@H]1OC: > 30 µM

INPUT: Query AC50 on UniProt P41145 for COC(=O)C1=C(C)NC(C)=C(C(=O)OC(C)(C)CN(C)CCC(c2ccccc2)c2ccccc2)C1c1cccc([N+](=O)[O-])c1 (centres undefined)
OUTPUT: 3.8 µM

INPUT: Missing value: AC50, UniProt P41145, entry Cc1cccc(C(C)c2cnc[nH]2)c1C (centres undefined) . Fill in?
OUTPUT: > 30 µM

INPUT: UniProt P41145 / AC50 / CC(C)C(=O)c1c(C(C)C)nn2ccccc12 : value?
OUTPUT: > 30 µM

INPUT: What AC50 appears in the records for this compound with UniProt P41145? CC(C)OC(=O)CCC/C=C\C[C@@H]1[C@@H](CC[C@@H](O)CCc2ccccc2)[C@H](O)C[C@@H]1O
OUTPUT: > 30 µM

INPUT: Checklist item: AC50 tested on UniProt P41145, entry O=P1(NCCCl)OCCCN1CCCl (centres undefined) [IFOSFAMIDE] , value?
OUTPUT: > 30 µM

###

Protein target, amino acids: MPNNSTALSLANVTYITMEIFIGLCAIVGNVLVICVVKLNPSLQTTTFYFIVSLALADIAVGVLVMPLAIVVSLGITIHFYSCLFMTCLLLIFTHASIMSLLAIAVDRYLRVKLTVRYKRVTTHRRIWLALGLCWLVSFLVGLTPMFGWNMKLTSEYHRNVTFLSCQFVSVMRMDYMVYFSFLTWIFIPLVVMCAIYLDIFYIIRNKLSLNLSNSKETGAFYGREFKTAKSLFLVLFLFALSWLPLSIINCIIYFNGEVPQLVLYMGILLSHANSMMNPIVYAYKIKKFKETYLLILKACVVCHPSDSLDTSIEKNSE
MEASURE_NAME: AC50

Check out these entries, answers already filled in.
• CN1C(=O)OC(C)(C)C1=O = > 10 µM
• O=[N+]([O-])c1cn2c(n1)OC[C@@H](OCc1ccc(OC(F)(F)F)cc1)C2 = > 30 µM
• CC1=C(C(=O)O)N2C(=O)[C@@H](NC(=O)[C@H](N)c3ccccc3)[C@H]2SC1 [CEPHALEXIN ANHYDROUS] = > 30 µM

// moving on: another record for AC50
INPUT: Given CNC(=O)c1ccccc1Sc1ccc2c(/C=C/c3ccccn3)n[nH]c2c1 , state its recorded AC50.
OUTPUT: 4.52 µM

###

Below, each entry is listed alongside its reported AC50.
Molecular target: Thromboxane A2 receptor (Homo sapiens, UniProt P21731); also: assay procedure not described here
Sequence (P21731 whole entry): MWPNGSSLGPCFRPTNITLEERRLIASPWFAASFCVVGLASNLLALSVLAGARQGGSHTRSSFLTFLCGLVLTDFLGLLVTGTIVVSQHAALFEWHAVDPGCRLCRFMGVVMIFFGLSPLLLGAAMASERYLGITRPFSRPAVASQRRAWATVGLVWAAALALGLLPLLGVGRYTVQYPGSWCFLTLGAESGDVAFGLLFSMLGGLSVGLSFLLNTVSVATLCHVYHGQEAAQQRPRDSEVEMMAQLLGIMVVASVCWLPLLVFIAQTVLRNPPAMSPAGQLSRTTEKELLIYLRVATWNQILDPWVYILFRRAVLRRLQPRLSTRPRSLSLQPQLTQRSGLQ
Format: functional, cell-based

Worked cases, answers included:
• O=C(CCNNC(=O)c1ccncc1)NCc1ccccc1 [NIALAMIDE] = > 30 µM
• N[C@H](C(=O)O)[C@H](O)c1ccc(O)c(O)c1 [DROXIDOPA] = > 30 µM
• CC[C@H]1[C@@H](O)[C@@H]2[C@H](CC[C@]3(C)[C@@H]([C@H](C)CCC(=O)O)CC[C@@H]23)[C@@]2(C)CC[C@@H](O)C[C@@H]12 [OBETICHOLIC ACID] = > 30 µM

INPUT: # value lookup — system Thromboxane A2 receptor (Homo sapiens, UniProt P21731), readout AC50, item CO[C@]12C[C@@H](COC(=O)c3cncc(Br)c3)CN(C)[C@@H]1Cc1cn(C)c3cccc2c13 [NICERGOLINE]; also: assay procedure not described here
OUTPUT: 7.6 µM

INPUT: Query the reported AC50 for Thromboxane A2 receptor (Homo sapiens, UniProt P21731); item: CC(=O)Oc1ccc2c(c1)CC[C@@H]1[C@@H]2CC[C@]2(C)[C@@H](O)CC[C@@H]12 [ESTRADIOL ACETATE]
OUTPUT: 13.1 µM

INPUT: // lookup AC50 | system=Thromboxane A2 receptor (Homo sapiens, UniProt P21731) | key= OC(CCN1CCCCC1)(c1ccccc1)c1ccccc1 [PRIDINOL]; also: assay procedure not described here
OUTPUT: > 30 µM

INPUT: Form field - read-out: AC50; system: Thromboxane A2 receptor (Homo sapiens, UniProt P21731); submitted item: CCc1oc2ccccc2c1C(=O)c1cc(I)c(O)c(I)c1 [BENZIODARONE]; also: assay procedure not described here
OUTPUT: > 1 µM

###

In this section, each of the molecules is paired with its reported AC50.
Target: Type-1 angiotensin II receptor (Homo sapiens, UniProt P30556); also: assay procedure not described here
Sequence (P30556 whole entry): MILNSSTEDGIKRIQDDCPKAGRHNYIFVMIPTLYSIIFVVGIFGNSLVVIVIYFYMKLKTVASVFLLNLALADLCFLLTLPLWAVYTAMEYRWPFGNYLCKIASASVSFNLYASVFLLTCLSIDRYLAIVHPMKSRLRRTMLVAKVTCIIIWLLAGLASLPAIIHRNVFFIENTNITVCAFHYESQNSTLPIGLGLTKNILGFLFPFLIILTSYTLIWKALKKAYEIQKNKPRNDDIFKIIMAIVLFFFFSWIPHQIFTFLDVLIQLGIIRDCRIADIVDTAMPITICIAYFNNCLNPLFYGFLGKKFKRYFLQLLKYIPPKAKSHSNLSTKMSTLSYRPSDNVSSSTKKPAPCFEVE

# annotated cases, reported AC50 shown
* Cn1nnc2c(C(N)=O)ncn2c1=O [TEMOZOLOMIDE] | > 30 µM
* Cc1ccc(-c2cc(C(F)(F)F)nn2-c2ccc(S(N)(=O)=O)cc2)cc1 [CELECOXIB] | > 10 µM
* CNC(C)CCC=C(C)C (centres undefined) [ISOMETHEPTENE] | > 30 µM
* COc1ccc2c3c1O[C@H]1[C@@H](O)C=C[C@H]4[C@@H](C2)N(C)CC[C@@]341 [CODEINE] | > 30 µM

INPUT: So what AC50 did NC(=O)OCC(COC(N)=O)c1ccccc1 [FELBAMATE] get with Type-1 angiotensin II receptor (Homo sapiens, UniProt P30556)?
OUTPUT: > 10 µM

INPUT: # returns recorded AC50 (system: Type-1 angiotensin II receptor (Homo sapiens, UniProt P30556)) for CCC(C(=O)O)c1ccc(N2Cc3ccccc3C2=O)cc1 (centres undefined) [INDOBUFEN]; also: assay procedure not described here
OUTPUT: > 30 µM

INPUT: Find the measured AC50: item CC(C[N+](C)(C)C)OC(N)=O (centres undefined) [BETHANECHOL] , target or system Type-1 angiotensin II receptor (Homo sapiens, UniProt P30556). Also: assay procedure not described here.
OUTPUT: > 10 µM

###

Target: UniProt Q12809
Sequence (Q12809 whole entry): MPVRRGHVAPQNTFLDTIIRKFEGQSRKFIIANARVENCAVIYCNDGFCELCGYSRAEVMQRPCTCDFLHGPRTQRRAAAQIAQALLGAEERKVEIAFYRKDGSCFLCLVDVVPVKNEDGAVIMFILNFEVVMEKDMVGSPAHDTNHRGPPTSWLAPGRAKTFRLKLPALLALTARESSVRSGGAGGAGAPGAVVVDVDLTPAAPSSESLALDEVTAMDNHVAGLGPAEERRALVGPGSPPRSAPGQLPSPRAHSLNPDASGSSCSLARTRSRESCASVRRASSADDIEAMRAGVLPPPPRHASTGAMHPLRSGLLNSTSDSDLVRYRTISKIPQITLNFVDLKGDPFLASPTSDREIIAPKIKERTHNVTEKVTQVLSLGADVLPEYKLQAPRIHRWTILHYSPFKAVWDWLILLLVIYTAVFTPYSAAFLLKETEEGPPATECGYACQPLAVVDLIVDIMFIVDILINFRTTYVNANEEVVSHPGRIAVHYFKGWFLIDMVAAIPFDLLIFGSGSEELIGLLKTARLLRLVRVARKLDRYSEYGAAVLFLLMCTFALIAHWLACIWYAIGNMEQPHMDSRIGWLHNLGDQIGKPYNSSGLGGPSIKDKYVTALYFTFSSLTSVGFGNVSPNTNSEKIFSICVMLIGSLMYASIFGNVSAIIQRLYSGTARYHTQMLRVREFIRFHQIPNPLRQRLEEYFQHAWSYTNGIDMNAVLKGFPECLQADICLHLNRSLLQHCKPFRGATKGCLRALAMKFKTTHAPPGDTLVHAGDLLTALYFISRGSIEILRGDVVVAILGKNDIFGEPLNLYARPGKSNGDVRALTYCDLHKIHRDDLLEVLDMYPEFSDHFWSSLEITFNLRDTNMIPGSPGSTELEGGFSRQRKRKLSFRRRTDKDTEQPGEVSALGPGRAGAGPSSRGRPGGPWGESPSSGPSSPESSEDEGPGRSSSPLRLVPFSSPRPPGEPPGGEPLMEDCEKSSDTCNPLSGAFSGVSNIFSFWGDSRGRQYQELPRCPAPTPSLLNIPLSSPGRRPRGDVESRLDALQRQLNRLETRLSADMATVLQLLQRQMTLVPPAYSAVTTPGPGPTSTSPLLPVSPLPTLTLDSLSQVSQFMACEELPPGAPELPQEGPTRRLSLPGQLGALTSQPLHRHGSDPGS
Type: functional
Settings: read-out: AC50; also: assay procedure not described here
MEASURE_NAME: AC50

INPUT: Report AC50 for CC(CNC(=O)c1ccccc1)C(=O)OCC(=O)[C@@]12OC(C)(C)O[C@@H]1C[C@H]1[C@@H]3CCC4=CC(=O)C=C[C@]4(C)[C@@]3(F)[C@@H](O)C[C@@]12C (some centres not stated) [TRIAMCINOLONE BENETONIDE] please.
OUTPUT: > 30 µM

INPUT: Name the reported AC50 value associated with the molecule CC1(C)O[C@@H]2C[C@H]3[C@@H]4CCC5=CC(=O)C=C[C@]5(C)[C@H]4[C@@H](O)C[C@]3(C)[C@]2(C(=O)CO)O1 [DESONIDE]
OUTPUT: > 30 µM

INPUT: Which AC50 value is on record for Fc1ccc(C(c2ccccc2)(c2ccccc2F)n2ccnc2)cc1 (configuration not stated) ?
OUTPUT: 1.68 µM

INPUT: What does the data say about its AC50? Entry: CC[C@H]1CN2CC[C@H]1C[C@H]2[C@H](O)c1ccnc2ccc(OC)cc12 [HYDROQUININE]
OUTPUT: 10 µM

INPUT: Would you kindly share the measured AC50 for CC(C)(C)N1CCC(c2ccccc2)(c2ccccc2)CC1 ?
OUTPUT: 6.5 µM

INPUT: Param item = O=C(NCCN1CCOCC1)c1ccc(Cl)cc1 [MOCLOBEMIDE] ; retrieve measured AC50.
OUTPUT: > 30 µM

INPUT: # AC50 lookup, item Cc1cccc(C(C)c2cnc[nH]2)c1C (configuration not stated)
OUTPUT: 17.8 µM

INPUT: What AC50 value was documented for this molecule, CCOc1ccc(Cc2cc([C@@H]3O[C@H](CO)[C@@H](O)[C@H](O)[C@H]3O)ccc2Cl)cc1 ?
OUTPUT: > 30 µM

INPUT: What does the record list as AC50 for O=C(OCC(O)CO)c1ccccc1Nc1ccnc2cc(Cl)ccc12 (configuration not stated) ?
OUTPUT: 1.4 µM

INPUT: Recorded AC50 of CC(=O)Nc1ccc(O)cc1 , please.
OUTPUT: > 30 µM

INPUT: Which AC50 is listed for CC(C)(C)c1cc(C(C)(C)C)c(NC(=O)c2c[nH]c3ccccc3c2=O)cc1O ?
OUTPUT: > 30 µM

INPUT: Entry COC(=O)[C@H]1[C@H]2C[C@@H]3c4[nH]c5cc(OC)ccc5c4CCN3C[C@H]2C[C@@H](OC(=O)/C=C/c2cc(OC)c(OC)c(OC)c2)[C@@H]1OC has what AC50?
OUTPUT: 0.988 µM

INPUT: I have this molecule here, COC1=C(OC)C(=O)C(C/C=C(\C)CC/C=C(\C)CC/C=C(\C)CC/C=C(\C)CC/C=C(\C)CC/C=C(\C)CC/C=C(\C)CC/C=C(\C)CC/C=C(\C)CCC=C(C)C)=C(C)C1=O , and I need its recorded AC50.
OUTPUT: > 30 µM

INPUT: Form field: reported AC50 of CCOC(=O)/C=C1\SC(N2CCCCC2)C(=O)N1C (configuration not stated)
OUTPUT: > 30 µM

INPUT: I'd like to know its AC50. The molecule in question is CC[N+]1(C)[C@@H]2CC(OC(=O)[C@H](CO)c3ccccc3)C[C@H]1[C@@H]1O[C@@H]12 (some centres not stated)
OUTPUT: > 30 µM
